Cited source for all entries: the supplement of paper PMC10126150

# Test system: ATP;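 also: ATP exposure 15 min at 22 °C before imaging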
# TEST_METHOD_NOTES: switch fluorescence ratio, 500 uM ATP over buffer (Cy3 cluster intensity, sum of 5 cycles each) (fold (ratio)); higher = stronger signal-on switching upon ATP binding; sequences stand for … in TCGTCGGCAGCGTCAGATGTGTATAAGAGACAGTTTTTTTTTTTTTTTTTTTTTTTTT…TC
# COND: aptamer strand: ATP DNA aptamer (quencher-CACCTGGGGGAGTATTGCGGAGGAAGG + anchor), 100 nM annealed; ATP concentration: 500 uM
Tag: Satisfied if measured switch fluorescence ratio is not below 1, Not satisfied if it is.

Previously resolved entries follow.
Ask: Given AGATATGAGA , state whether its switch fluorescence ratio is at least 1.
Result: Satisfied

Ask: Item: CCGGGGGATG
Result: Satisfied

Ask: Next: GTTTGTTACT
Result: Not satisfied

Ask: Could you do the same for CGTGCAGGGG , please?
Result: Satisfied

Ask: Next: CTGATAGTTG
Result: Satisfied

Further cases:
Ask: Does TTCGTTTAGT have a reported switch fluorescence ratio of at least 1?
Result: Satisfied

Ask: Likewise for CACGTACTCC ?
Result: Satisfied

Ask: Do the same for AACATGGAGG please
Result: Not satisfied

Ask: Then this sequence: ATAAAAGTCT
Result: Satisfied

Ask: Subsequent entry: ACTAAGAGGG
Result: Satisfied

Ask: Request: CCTCGTTGAA
Result: Satisfied

Ask: Lookup CTAAAATGCT
Result: Satisfied

Ask: Same read-out for TAAAACATTG ?
Result: Satisfied

Ask: How about TTCGTTTATC ?
Result: Satisfied

Ask: Another sequence to check: TGCTGTTGGC
Result: Not satisfied

Ask: Also need TTAACAGGGG , thanks.
Result: Satisfied

Ask: CCGTTCGACA , same question.
Result: Satisfied

Ask: Can you check CAGGAGACGA next?
Result: Satisfied

Ask: Okay, and ACGTACACTT ?
Result: Satisfied

----------
# switch fluorescence ratio annotations
# Test system: ATP;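 also: ATP exposure 15 min at 22 °C before imaging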
# TEST_METHOD_NOTES: switch fluorescence ratio, 500 uM ATP over buffer (Cy3 cluster intensity, sum of 5 cycles each) (fold (ratio)); higher = stronger signal-on switching upon ATP binding; sequences stand for … in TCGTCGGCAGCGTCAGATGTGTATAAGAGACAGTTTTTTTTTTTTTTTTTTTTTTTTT…TC
# COND: aptamer strand: ATP DNA aptamer (quencher-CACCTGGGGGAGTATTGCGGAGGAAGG + anchor), 100 nM annealed; ATP concentration: 500 uM
Respond numerically, and do not add a unit to the figure.

Some sequences with recorded switch fluorescence ratio:
Ask: If you can, please state the reported switch fluorescence ratio value of TCTGACGGTG .
Result: 1.01

Ask: And for TTGAAGAGG ?
Result: 1.02

// next entry
Ask: switch fluorescence ratio lookup needed for TTGTTTTATG , thanks.
Result: 0.998

----------
# Tested on: ATP;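 also: ATP exposure 15 min at 22 °C before imaging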
# TEST_METHOD_NOTES: switch fluorescence ratio, 500 uM ATP over buffer (Cy3 cluster intensity, sum of 5 cycles each) (fold (ratio)); higher = stronger signal-on switching upon ATP binding; sequences stand for … in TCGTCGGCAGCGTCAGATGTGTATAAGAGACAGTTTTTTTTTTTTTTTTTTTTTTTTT…TC
# COND: aptamer strand: ATP DNA aptamer (quencher-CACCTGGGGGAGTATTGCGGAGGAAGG + anchor), 100 nM annealed; ATP concentration: 500 uM
If the reported switch fluorescence ratio equals or exceeds 1, assign label 1. If not, assign label 0.

Here's what some known entries look like.
Ask: I'd appreciate it if you could say whether AGCCGGACGC has switch fluorescence ratio at least equal to 1.
Result: label 1

Ask: Check GGTTGGAATA too.
Result: label 0

Ask: Further, for GCTAGCGGTC ?
Result: label 1

Okay, next one:
Ask: Decide: switch fluorescence ratio of AAATTCTGCG >= 1?
Result: label 0

----------
# Test system: ATP;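 also: ATP exposure 15 min at 22 °C before imaging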
# TEST_METHOD_NOTES: switch fluorescence ratio, 500 uM ATP over buffer (Cy3 cluster intensity, sum of 5 cycles each) (fold (ratio)); higher = stronger signal-on switching upon ATP binding; sequences stand for … in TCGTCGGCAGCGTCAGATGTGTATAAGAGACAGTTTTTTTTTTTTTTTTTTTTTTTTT…TC
# COND: aptamer strand: ATP DNA aptamer (quencher-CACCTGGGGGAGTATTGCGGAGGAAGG + anchor), 100 nM annealed; ATP concentration: 500 uM
PROPERTY_LABEL: switch fluorescence ratio
API note: the answer field is a bare number with no unit suffix.

Take a look at these entries with their results.
Ask: Which measured switch fluorescence ratio value corresponds to CGCTTGGGGT ?
Result: 0.963

Ask: What do you have for AACGCAGCCT ?
Result: 1.11

Others:
Ask: # switch fluorescence ratio lookup, item AAGGCGAGAC
Result: 1.06

Ask: Now try TTACGAAACG .
Result: 1.08

----------
# System: ATP;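 also: ATP exposure 15 min at 22 °C before imaging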
# TEST_METHOD_NOTES: switch fluorescence ratio, 500 uM ATP over buffer (Cy3 cluster intensity, sum of 5 cycles each) (fold (ratio)); higher = stronger signal-on switching upon ATP binding; sequences stand for … in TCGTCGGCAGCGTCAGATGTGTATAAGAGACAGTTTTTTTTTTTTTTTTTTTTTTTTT…TC
# COND: aptamer strand: ATP DNA aptamer (quencher-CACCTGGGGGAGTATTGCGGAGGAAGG + anchor), 100 nM annealed; ATP concentration: 500 uM
PROPERTY_LABEL: switch fluorescence ratio

Ask: Request: switch fluorescence ratio, test system ATP, entry AAACGTGGTG;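 also: ATP exposure 15 min at 22 °C before imaging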
Result: 1

Ask: Now the same for TATAAGATTA
Result: 1.02

Ask: Proceed to GGTGTTGGAG
Result: 0.997

Further cases:
Ask: Could you share what switch fluorescence ratio was measured for GGGCTAGTTC , tested on ATP?;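 also: ATP exposure 15 min at 22 °C before imaging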
Result: 1.05

Ask: // repeat for GGGGTGCTTT and report
Result: 0.987

Ask: Another sequence: TTCAGAATTG
Result: 1

Ask: GGGTGGTGCT , same question.
Result: 0.978

Ask: // next record GGTTGTGTTA
Result: 0.998

Ask: Likewise for GGGGTAATTT ?
Result: 1.02

Ask: What about this sequence? GGCGTTCGCT
Result: 0.984

----------
# Test system: ATP;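 also: ATP exposure 15 min at 22 °C before imaging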
# TEST_METHOD_NOTES: switch fluorescence ratio, 500 uM ATP over buffer (Cy3 cluster intensity, sum of 5 cycles each) (fold (ratio)); higher = stronger signal-on switching upon ATP binding; sequences stand for … in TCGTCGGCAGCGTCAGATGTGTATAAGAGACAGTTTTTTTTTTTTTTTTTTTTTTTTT…TC
# COND: aptamer strand: ATP DNA aptamer (quencher-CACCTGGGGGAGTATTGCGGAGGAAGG + anchor), 100 nM annealed; ATP concentration: 500 uM
PROPERTY_LABEL: switch fluorescence ratio
Number only, no unit.

Ask: Hello, I am looking for reported switch fluorescence ratio with ATP for TTAAATCATT . Could you help?
Result: 1.01

Ask: For TAATTATGGG then?
Result: 1.04

Ask: Now try CGTGGCCTGG .
Result: 0.994

Ask: Also need ACCCTTCCAA , thanks.
Result: 1.72

Ask: Field entry: GCATGTTAGG
Result: 1.01

Ask: Field entry: ACAGAGGGAT
Result: 1.02

Ask: Likewise for GAGTTTTCTA ?
Result: 0.999

Ask: Also TGAGATAGAG , if possible.
Result: 0.975

Ask: Next sequence up: GGTTAACTAG
Result: 1.02

Ask: Would you mind doing GATTGCATCG as well?
Result: 0.994

Ask: What do you get for AGGGGGGCT ?
Result: 1.01

Ask: Try this sequence too: AATCAGCGTC
Result: 0.986

Ask: Please do the same for TCAGGGGCCC as well.
Result: 1.07

Ask: Same thing, different sequence: AGGGAGGGTA
Result: 0.989

Ask: Next record, please: TATGGTGTAG
Result: 1

----------
switch fluorescence ratio listing for selected sequences.
# Test system: ATP;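 also: ATP exposure 15 min at 22 °C before imaging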
# TEST_METHOD_NOTES: switch fluorescence ratio, 500 uM ATP over buffer (Cy3 cluster intensity, sum of 5 cycles each) (fold (ratio)); higher = stronger signal-on switching upon ATP binding; sequences stand for … in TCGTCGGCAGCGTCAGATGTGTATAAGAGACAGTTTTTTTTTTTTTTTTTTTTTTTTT…TC
# COND: aptamer strand: ATP DNA aptamer (quencher-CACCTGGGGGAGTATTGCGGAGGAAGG + anchor), 100 nM annealed; ATP concentration: 500 uM
Give the value as a plain number.

Here's what some known entries look like.
Ask: Please give the measured switch fluorescence ratio for this sequence: ATACTATATT
Result: 1.05

Ask: Can you handle AGGGTCTTGA next?
Result: 1.01

Ask: Entry to check: GGGTACTGGG
Result: 1

Ask: Now this one: AGCGTACTTT
Result: 1.12

Ask: Query CTGATTTTAG next
Result: 1.02

Ask: Okay, and GTATAACCCG ?
Result: 0.992

Then this sequence:
Ask: Requested field: switch fluorescence ratio. Item: GATTTTGTGC
Result: 1
